Cited source: patent US8664236B2

- tested on: PDK1 kinase in PC3 cells (PKB phosphorylation at Thr 308) (Homo sapiens (Human))
- Sequence (O15530 whole entry): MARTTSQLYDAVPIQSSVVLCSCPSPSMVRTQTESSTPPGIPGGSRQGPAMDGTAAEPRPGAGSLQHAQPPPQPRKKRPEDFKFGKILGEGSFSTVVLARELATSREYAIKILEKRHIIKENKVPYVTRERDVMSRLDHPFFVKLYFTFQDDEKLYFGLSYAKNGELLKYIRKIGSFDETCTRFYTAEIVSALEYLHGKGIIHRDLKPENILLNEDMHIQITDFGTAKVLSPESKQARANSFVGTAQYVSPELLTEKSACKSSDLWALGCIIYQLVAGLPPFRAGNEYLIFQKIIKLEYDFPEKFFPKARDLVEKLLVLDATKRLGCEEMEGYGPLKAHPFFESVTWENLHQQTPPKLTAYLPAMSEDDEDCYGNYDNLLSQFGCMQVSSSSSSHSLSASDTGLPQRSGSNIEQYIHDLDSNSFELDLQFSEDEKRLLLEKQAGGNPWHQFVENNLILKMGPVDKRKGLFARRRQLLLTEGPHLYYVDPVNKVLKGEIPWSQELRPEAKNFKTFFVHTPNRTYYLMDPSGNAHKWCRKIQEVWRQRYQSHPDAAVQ
- test method notes: Cellular testing of PDK1 kinase inhibitors in PC3 cells (Luminex, phospho-T308-PKB)
- Type: cell-based
- condition context: PKB phosphorylation at Thr 308 in PC3 cells; read-out: cellular IC50
measured property: IC50 (nM)
Provide the reading as a plain figure in nM.

Given the molecule Cn1cc(-c2cnc3[nH]cc(-c4cc(C5(c6ccccc6)CCCC5)nc(N)n4)c3c2)cn1 , what is its reported IC50? 625

Same thing, different molecule: Cn1cc(-c2cnc3[nH]cc(-c4cc(N(CCCN)c5ccccc5)nc(N)n4)c3c2)cn1 6800

Same thing, different molecule: CN(c1cccc(F)c1)c1cc(-c2c[nH]c3ncc(-c4cnn(C)c4)cc23)ncn1 [A30a] 660

Next:
Given the molecule Cn1cc(-c2cnc3[nH]cc(-c4cc(C5(c6ccccc6)CC5)nc(N)n4)c3c2)cn1 , what is its reported IC50? 110

Same thing, different molecule: Cn1cc(-c2cnc3[nH]cc(-c4cc(C(C)(C)c5ccccc5)nc(N)n4)c3c2)cn1 140

Same thing, different molecule: CC(=O)NCCCN(c1ccccc1)c1cc(-c2c[nH]c3ncc(-c4cnn(C)c4)cc23)nc(N)n1 430

Same thing, different molecule: CN(c1cc(-c2c[nH]c3ncc(-c4cnn(C)c4)cc23)nc(N)n1)c1ccccc1Cl 26

Same thing, different molecule: Cn1cc(-c2cnc3[nH]cc(-c4cc(C5(c6ccc(Cl)cc6)CCCC5)nc(N)n4)c3c2)cn1 1400

----------
- tested on: PDK1 (His6-PDK1(Δ1-50)) (Homo sapiens (Human), UniProt O15530)
- Sequence (O15530 51-556): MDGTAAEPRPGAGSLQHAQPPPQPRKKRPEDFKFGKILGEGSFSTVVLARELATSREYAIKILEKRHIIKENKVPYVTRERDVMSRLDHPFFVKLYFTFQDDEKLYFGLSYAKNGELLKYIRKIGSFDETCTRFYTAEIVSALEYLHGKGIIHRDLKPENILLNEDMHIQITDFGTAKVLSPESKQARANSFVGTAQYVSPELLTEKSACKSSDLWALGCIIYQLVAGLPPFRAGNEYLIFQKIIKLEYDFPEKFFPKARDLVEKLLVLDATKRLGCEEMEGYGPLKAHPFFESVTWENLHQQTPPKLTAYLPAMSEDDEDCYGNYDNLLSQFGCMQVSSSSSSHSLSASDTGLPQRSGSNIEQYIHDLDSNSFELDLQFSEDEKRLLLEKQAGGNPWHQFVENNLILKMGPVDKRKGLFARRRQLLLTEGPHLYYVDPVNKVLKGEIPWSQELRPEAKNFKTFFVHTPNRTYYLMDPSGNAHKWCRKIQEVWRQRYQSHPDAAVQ
- test method notes: Test for the inhibition of PDK1 (enzymatic, flashplate, 33P-ATP)
- Assay type: biochemical
- condition context: enzymatic PDK1 inhibition assay; read-out: enzymatic IC50
- Experimental: 4. Test for the Inhibition of PDK1 The experimental batches are carried out in a flashplate system with 384 wells/microtitration plate. The test substances are employed in corresponding concentrations (if desired in a dilution series). […] The activity of the kinase is measured via the incorporated radioactivity in top count. […] The radioactivity (decompositions per minute) of the blank value (no use of test substance in the presence of staurosporine) is subtracted from all other radioactivity values. […]
measured property: pIC50
Scale: negative log10 of molar concentration, which is what pIC50 denotes.

Known results for compounds:
Given the compound Cn1cc(-c2cnc3[nH]cc(-c4cc(N(CCO)c5ccc(F)cc5F)nc(N)n4)c3c2)cn1 , what is its reported pIC50? 8.19

Same thing, different compound: CCN(c1ccccc1)c1cc(-c2c[nH]c3ncc(-c4cnn(C)c4)cc23)nc(N)n1 7.92

Same thing, different compound: COCC(O)CN(c1ccccc1)c1cc(-c2c[nH]c3ncc(-c4cnn(C)c4)cc23)nc(N)n1 (centres unmarked) 7.96

Same thing, different compound: Cn1cc(-c2cnc3[nH]cc(-c4cc(N(CCO)c5ccccc5)nc(N)n4)c3c2)cn1 7.89

Same thing, different compound: Cn1cc(-c2cnc3[nH]cc(-c4cc(N(CCN5CCOCC5)c5cccc(F)c5)nc(N)n4)c3c2)cn1 7.05

Same thing, different compound: CN(c1ccccc1)c1cc(-c2c[nH]c3ncc(-c4cnn(C)c4)cc23)nc(N)n1 7.78

Next:
Given the compound CCN(c1cc(-c2c[nH]c3ncc(-c4cnn(C)c4)cc23)nc(N)n1)c1nncs1 , what is its reported pIC50? 6.81

Same thing, different compound: Cn1cc(-c2cnc3[nH]cc(-c4cc(C(C)(C)c5ccccc5)nc(N)n4)c3c2)cn1 7.19

Same thing, different compound: COC(=O)CN(c1ccc(Cl)cc1)c1cc(-c2c[nH]c3ncc(-c4cnn(C)c4)cc23)nc(N)n1 7.16

Same thing, different compound: CN(c1cc(-c2c[nH]c3ncc(-c4cnn(C)c4)cc23)nc(N)n1)c1ccccc1F 8.01

Same thing, different compound: Cn1cc(-c2cnc3[nH]cc(-c4cc(N(CC(O)CO)c5cccc(C#N)c5)nc(N)n4)c3c2)cn1 (centres unmarked) 7.05

Same thing, different compound: CN(c1cc(-c2c[nH]c3ncc(-c4cnn(C)c4)cc23)nc(N)n1)c1ccccc1Cl 8.12

Same thing, different compound: COCCN(c1cc(-c2c[nH]c3ncc(-c4cnn(C)c4)cc23)nc(N)n1)c1ccccc1Cl 8.15

Same thing, different compound: Cn1cc(-c2cnc3[nH]cc(-c4cc(N(CCCN)c5ccccc5)nc(N)n4)c3c2)cn1 8.06
